B1: POU domain, class 2, transcription factor 2, residues 200 to 269; numbered along this chain, P09086 (parent)
chain: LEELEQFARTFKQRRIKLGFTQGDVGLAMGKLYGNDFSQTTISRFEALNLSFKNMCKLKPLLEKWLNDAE

Variants of: B1
Assay: abundance fitness (aPCA) (normalised: wild type 0, dead -1); higher = more abundant; growth selection in yeast, the domain comes from the species named
Details: Homo sapiens
We use -0.2 as the dividing line for abundance fitness: on or above the line is condition met, below is condition not met.

> print(dat)
    mutant.name        group.label
 1         K64H      condition met
 2         D24H      condition met
 3         L66R  condition not met
 4         N49P  condition not met
 5         L50R  condition not met
 6         V25F  condition not met
 7         G23Y  condition not met
 8         T10N      condition met
 9         M29Q  condition not met
10         G26C      condition met
11         S51N      condition met
12         I16H      condition met
13         K64S      condition met
14         N54A      condition met

Cited source for all entries: the Human Domainome abundance scans (Beltran et al. 2025)
